Origin of values: ChEMBL document CHEMBL1152268

- protocol-notes: Metabolic stability in rat liver microsomes after 30 mins
- Format: ADME, Microsome
- conditions-used: liver microsomes, read-out: Stability
experimental-endpoint: remaining at 0.5 h (%)

> print(dat)
                              smiles.string  experimental.endpoint  quantitative.readout
1     Cc1cc(C)cc(Nc2nccc(-c3ncc(CO)s3)n2)c1     remaining at 0.5 h                    37
2  Cc1cc(C)cc(Nc2nccc(-c3nc(C)c(CCO)s3)n2)c1     remaining at 0.5 h                    65
3  Cc1cc(Nc2nccc(-c3nc(C)c(CCO)s3)n2)cc(C(F)(F)F)c1     remaining at 0.5 h                    80

1. COc1cc(Nc2nccc(-c3nccs3)n2)cc(C(F)(F)F)c1
2. Oc1cc(Nc2nccc(-c3nccs3)n2)cc(C(F)(F)F)c1
3. Cc1cc(C)cc(Nc2nccc(-c3nc(CO)cs3)n2)c1
4. COc1cc(Nc2nccc(-c3nccs3)n2)cc(OC)c1
Task: Form: Sort by [remaining at 0.5 h] Order [ ascending ] Form field (ranking): labels in requested order.
Result: 4, 2, 3, 1

A. OCc1csc(-c2ccnc(Nc3cc(O)cc(C(F)(F)F)c3)n2)n1
B. Cc1cc(C)cc(Nc2nccc(-c3nccs3)n2)c1
Task: // pick min by remaining at 0.5 h: A , B Returns: label corresponding to the selected item.
Result: B
(B: 24%, A: 50%)

====

- assay-system: Tyrosine-protein kinase ZAP-70 (Homo sapiens)
- Sequence (P43403 whole entry): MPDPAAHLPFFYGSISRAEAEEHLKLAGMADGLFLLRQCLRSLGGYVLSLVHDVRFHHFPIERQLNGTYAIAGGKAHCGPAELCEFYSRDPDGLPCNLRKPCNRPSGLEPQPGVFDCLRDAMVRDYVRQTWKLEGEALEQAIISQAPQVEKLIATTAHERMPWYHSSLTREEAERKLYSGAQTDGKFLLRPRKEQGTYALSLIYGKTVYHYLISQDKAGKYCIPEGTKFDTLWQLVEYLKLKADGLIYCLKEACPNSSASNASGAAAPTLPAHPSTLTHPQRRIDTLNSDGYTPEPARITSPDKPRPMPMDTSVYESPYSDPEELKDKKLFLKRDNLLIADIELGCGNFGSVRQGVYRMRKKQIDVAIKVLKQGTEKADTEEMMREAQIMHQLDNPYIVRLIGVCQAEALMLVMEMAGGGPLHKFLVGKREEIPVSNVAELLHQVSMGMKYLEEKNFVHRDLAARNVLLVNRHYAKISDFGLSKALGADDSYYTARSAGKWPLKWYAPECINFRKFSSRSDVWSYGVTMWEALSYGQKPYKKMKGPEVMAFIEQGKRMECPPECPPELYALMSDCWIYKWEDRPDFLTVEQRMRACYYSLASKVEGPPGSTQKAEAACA
- protocol-notes: Inhibition of ZAP70
pKi: −log10 of the molar value.
experimental-endpoint: pKi

Would you please look over these solved cases?
> print(dat)
                              smiles.string  experimental.endpoint  quantitative.readout
1  Cc1cc(C)cc(Nc2nccc(-c3nc(C)c(CCO)s3)n2)c1                    pKi                  6.25
2      Cc1cc(C)cc(Nc2nccc(-c3nc(C)cs3)n2)c1                    pKi                  5.99
3       COc1cc(Nc2nccc(-c3nccs3)n2)cc(OC)c1                    pKi                  6.50
4  COc1cc(Nc2nccc(-c3ncc(C)s3)n2)cc(C(F)(F)F)c1                    pKi                  5.94
5  Oc1cc(Nc2nccc(-c3nccs3)n2)cc(C(F)(F)F)c1                    pKi                  6.12
6  COc1cc(Nc2nccc(-c3nc(CO)cs3)n2)cc(C(F)(F)F)c1                    pKi                  6.00

a. Cc1cc(C)cc(Nc2nccc(-c3nc(C)c(C(=O)N[C@@H](C)CO)s3)n2)c1
b. Cc1cc(Nc2nccc(-c3nc(CO)cs3)n2)cc(C(F)(F)F)c1
c. Cc1cc(C)cc(Nc2nccc(-c3nccs3)n2)c1
Task: # sort list by recorded pKi, greatest to least Field: ranking. Enter the labels in the order requested.
Result: a, c, b
(a: 6.62, c: 6.38, b: 6.12)

====

Ki data for Proto-oncogene tyrosine-protein kinase Src (Homo sapiens, UniProt P12931) follow.
experimental-endpoint: Ki (nM)

Please review the entries below; each comes with its answer.
> print(dat)
                          smiles.string  measurement.unit  quantitative.readout
1  Cc1cc(C)cc(Nc2nccc(-c3ncc(C)s3)n2)c1                nM                   348
2        Cc1cccc(Nc2nccc(-c3nccs3)n2)c1                nM                  2980

a. COc1cc(Nc2nccc(-c3nc(CO)cs3)n2)cc(C(F)(F)F)c1
b. Cc1cc(C)cc(Nc2nccc(-c3nccs3)n2)c1
c. COc1cc(Nc2nccc(-c3nccs3)n2)cc(C(F)(F)F)c1
Task: Hi! Can you put these in order of Ki, lowest number first? List the labels in the requested order.
Result: b, c, a
(b: 1060 nM, c: 1830 nM, a: 3500 nM)

====

Consider compounds characterized by their Ki with Cyclin-dependent kinase 2 (Homo sapiens).

As a guide, the following entries are already answered.
> print(dat)
                              smiles.string                              assay.system     result
1     Cc1cc(C)cc(Nc2nccc(-c3ncc(CO)s3)n2)c1  Cyclin-dependent kinase 2 (Homo sapiens)  > 2500 nM
2  Cc1cc(Nc2nccc(-c3nc(CO)cs3)n2)cc(C(F)(F)F)c1  Cyclin-dependent kinase 2 (Homo sapiens)    1500 nM
3       COc1cc(Nc2nccc(-c3nccs3)n2)cc(OC)c1  Cyclin-dependent kinase 2 (Homo sapiens)  > 5000 nM
4      Cc1cc(C)cc(Nc2nccc(-c3ncc(C)s3)n2)c1  Cyclin-dependent kinase 2 (Homo sapiens)    1100 nM

Task: Recall and state the measured Ki for `Cc1cc(Nc2nccc(-c3nccs3)n2)cc(C(F)(F)F)c1` .
Result: > 5000 nM

Task: Determine its reported Ki: `COc1cc(Nc2nccc(-c3nccs3)n2)cc(C(F)(F)F)c1`
Result: > 5000 nM

Task: Look up and state reported Ki for `Cc1cc(C)cc(Nc2nccc(-c3nc(C)c(C(=O)N[C@H](C)CO)s3)n2)c1`
Result: > 3330 nM

Task: Tell me Ki reported for `Cc1cc(C)cc(Nc2nccc(-c3nc(C)cs3)n2)c1`
Result: 100 nM

Task: Look up and report measured Ki for this entry: `OCCCOc1cc(Nc2nccc(-c3nccs3)n2)cc(C(F)(F)F)c1`
Result: > 5000 nM

====

- Tested on: Liver microsomes
- protocol-notes: Metabolic stability in rat liver microsomes after 30 mins
- Format: ADME, Microsome
- conditions-used: microsomes, 0.5 h
experimental-endpoint: Activity

Take a look at these entries with their results.
> print(dat)
                              smiles.string  experimental.endpoint      result
1  COc1cc(Nc2nccc(-c3ncc(C)s3)n2)cc(C(F)(F)F)c1               Activity  Not Active
2            Cc1cccc(Nc2nccc(-c3nccs3)n2)c1               Activity  Not Active
3         Cc1ccc(C)c(Nc2nccc(-c3nccs3)n2)c1               Activity  Not Active
4      Cc1cc(C)cc(Nc2nccc(-c3ncc(C)s3)n2)c1               Activity         15%
5  Cc1cc(Nc2nccc(-c3nccs3)n2)cc(C(F)(F)F)c1               Activity  Not Active

Task: In one line, give reported Activity of the entry `Cc1cc(C)cc(Nc2nccc(-c3nc(C)cs3)n2)c1` .
Result: 5%

Task: Please report the measured Activity for `COc1cc(Nc2nccc(-c3nc(CO)cs3)n2)cc(C(F)(F)F)c1`
Result: Not Active

====

# Ki per entry for Tyrosine-protein kinase SYK (Homo sapiens, UniProt P43405)
experimental-endpoint: Ki (nM)

Examples from the recorded data:
> print(dat)
                              smiles.string  quantitative.readout
1  Cc1cc(Nc2nccc(-c3nccs3)n2)cc(C(F)(F)F)c1                   110
2  OCCCOc1cc(Nc2nccc(-c3nccs3)n2)cc(C(F)(F)F)c1                    26

A. Cc1cc(C)cc(Nc2nccc(-c3ncc(C)s3)n2)c1
B. Cc1cc(C)cc(Nc2nccc(-c3ncc(CO)s3)n2)c1
C. Cc1cc(C)cc(Nc2nccc(-c3nccs3)n2)c1
D. Oc1cc(Nc2nccc(-c3nccs3)n2)cc(C(F)(F)F)c1
Task: Put the entries in order of Ki, starting with the largest number. A ranking is expressed here by listing the labels in the requested order.
Result: D, A, C, B
(D: 44 nM, A: 23 nM, C: 8 nM, B: 4 nM)

====

- assay-system: Proto-oncogene tyrosine-protein kinase Src (Homo sapiens, UniProt P12931)
- Sequence (P12931 2-536 limits assumed): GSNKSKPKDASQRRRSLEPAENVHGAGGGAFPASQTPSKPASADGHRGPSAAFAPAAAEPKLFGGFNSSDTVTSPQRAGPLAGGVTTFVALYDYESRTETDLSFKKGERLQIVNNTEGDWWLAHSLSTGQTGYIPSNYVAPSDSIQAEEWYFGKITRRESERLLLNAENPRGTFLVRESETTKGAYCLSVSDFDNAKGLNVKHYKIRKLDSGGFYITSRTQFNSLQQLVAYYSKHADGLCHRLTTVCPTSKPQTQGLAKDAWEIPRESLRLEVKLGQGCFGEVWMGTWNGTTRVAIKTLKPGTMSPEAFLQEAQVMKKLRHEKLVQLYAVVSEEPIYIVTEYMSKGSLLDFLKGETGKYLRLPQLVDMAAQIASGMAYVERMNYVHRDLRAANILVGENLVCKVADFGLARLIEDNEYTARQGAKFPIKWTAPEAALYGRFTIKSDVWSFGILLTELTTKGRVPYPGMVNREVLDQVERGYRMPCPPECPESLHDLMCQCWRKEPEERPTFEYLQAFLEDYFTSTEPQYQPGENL
- protocol-notes: Inhibition of SRC
pKi: −log10 of the molar value.
experimental-endpoint: pKi

> print(dat)
                         smiles.string  experimental.endpoint  quantitative.readout
1  COc1cc(Nc2nccc(-c3nccs3)n2)cc(OC)c1                    pKi                  6.06

A. Cc1cc(Nc2nccc(-c3nccs3)n2)cc(C(F)(F)F)c1
B. Cc1ccc(C)c(Nc2nccc(-c3nccs3)n2)c1
Task: Identify the entry with the larger pKi. Options: A and B Answer with the label corresponding to your selection.
Result: B
(B: 6.82, A: 5.87)
